# targetUnderTest: hGLP-1R (Homo sapiens, UniProt P43220)
# Sequence (P43220 24-463): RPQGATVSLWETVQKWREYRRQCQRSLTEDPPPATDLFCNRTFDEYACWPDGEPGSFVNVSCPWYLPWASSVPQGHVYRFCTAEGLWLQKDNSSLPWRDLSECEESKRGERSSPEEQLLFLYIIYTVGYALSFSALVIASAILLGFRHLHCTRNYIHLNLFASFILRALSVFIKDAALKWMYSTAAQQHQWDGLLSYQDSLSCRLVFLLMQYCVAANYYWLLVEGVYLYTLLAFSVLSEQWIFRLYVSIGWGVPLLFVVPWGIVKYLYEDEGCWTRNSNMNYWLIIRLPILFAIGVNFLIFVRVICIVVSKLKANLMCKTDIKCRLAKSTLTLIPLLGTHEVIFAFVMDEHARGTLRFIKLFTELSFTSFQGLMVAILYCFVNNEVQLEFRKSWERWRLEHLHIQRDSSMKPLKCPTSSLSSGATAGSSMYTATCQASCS
# protocolDescription: cell-based or functional assay
valueKind: log10 cAMP Rel EC50 (in the presence of 1% HSA) (log10 of the value in nM)

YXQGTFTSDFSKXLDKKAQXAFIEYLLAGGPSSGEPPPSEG (Aib, αMeL; acyl on Lys; C-terminal amide; synthetic construct; SITE 2: note = 2-Aminoisobutyric Acid; SITE 13: note = alpha-methyl-leucine; SITE 17: note = Lysine is chemically modified through conjugation of the epsilon-amino group of the Lysine side chain with (2-[2-(2-Amino-ethoxy)-ethoxy]-acetyl)-(gamma-Glu)-CO-(CH2) 16-CO2H; SITE 20: n) [Example 22]    2.77
YXQGTFTSDFSKXLDKKAQXAFIEYLLAGAPSSGAPPPSEG (synthetic construct; SITE 2: note = 2-Aminoisobutyric Acid; SITE 13: note = alpha-methyl-leucine; SITE 17: note = Lysine is chemically modified through conjugation of the epsilon-amino group of the Lysine side chain with (2-[2-(2-Amino-ethoxy)-ethoxy]-acetyl)-(gamma-Glu)-CO-(CH2) 18-CO2H; SITE 20: n) [Example 24]    2.65
YXQGTXTSDXSIXLDKKAQXAFIEYLEEGGPSSGEPPPSGTGE (non-natural residues, C18 diacid acylation, C-terminal amide; synthetic construct; SITE 2: note = 2-Aminoisobutyric Acid; SITE 6: note = alpha-methyl-2-fluoro-L-phenylalanine; SITE 10: note = 3-(4-Pyridyl)-L-alanine; SITE 13: note = alpha-methyl-leucine; SITE 17: note = Lysine is chemically modified through conjugation of the epsilon-amino group of the Lysine) [Example 624]    1.80
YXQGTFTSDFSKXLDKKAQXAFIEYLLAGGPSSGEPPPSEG (synthetic construct; SITE 2: note = 2-Aminoisobutyric Acid; SITE 13: note = alpha-methyl-leucine; SITE 17: note = Lysine is chemically modified through conjugation of the epsilon-amino group of the Lysine side chain with (2-[2-(2-Amino-ethoxy)-ethoxy]-acetyl)2-(gamma-Glu)-CO-(CH2 )16-CO2H; SITE 20:) [Example 25]    2.72
YXQGTXTSDXSILLDKKAQXAFIEYLEEGGPSSGAPPPSGGGE (non-natural residues; lipidated Lys; C-terminal amide; synthetic construct; SITE 2: note = 2-Aminoisobutyric Acid; SITE 6: note = alpha-methyl-2-fluoro-L-phenylalanine; SITE 10: note = 3-(4-Pyridyl)-L-alanine; SITE 17: note = Lysine is chemically modified through conjugation of the epsilon-amino group of the Lysine side chain with (gamma-Glu)2-CO-(CH2)1) [Example 619]    1.97
YXQGTXTSDXSIXLDKKAQXAFIEYLEEGGPSSGAPPPSGEGE (Lys acylated with (γGlu)2-C18 diacid; non-natural residues; C-amide; synthetic construct; SITE 2: note = 2-Aminoisobutyric Acid; SITE 6: note = alpha-methyl-2-fluoro-L-phenylalanine; SITE 10: note = 3-(4-Pyridyl)-L-alanine; SITE 13: note = alpha-methyl-leucine; SITE 17: note = Lysine is chemically modified through conjugation of the epsilon-amino group of the Lysine) [Example 623]    1.79
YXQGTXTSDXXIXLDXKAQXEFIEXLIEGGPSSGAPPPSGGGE (acylated Lys, C-terminal amide, non-natural residues; synthetic construct; SITE 2: note = 2-Aminoisobutyric Acid; SITE 6: note = alpha-methyl-2-fluoro-L-phenylalanine; SITE 10: note = 3-(4-Pyridyl)-L-alanine; SITE 11: note = alpha-methyl-L-serine; SITE 13: note = alpha-methyl-leucine; SITE 16: note = L-ornithine; SITE 17: note = Lysine is chemically mo) [Example 1180]    1.55
YXQGTFTSDFSKXLDKKAQXAFIEYLLEAGPSSGAPPPGEG (not fully specified; synthetic construct; SITE 2: note = 2-Aminoisobutyric Acid; SITE 13: note = alpha-methyl-leucine; SITE 17: note = Lysine is chemically modified through conjugation of the epsilon-amino group of the Lysine side chain with (2-[2-(2-Amino-ethoxy)-ethoxy]-acetyl)-(gamma-Glu)-CO-(CH2) 18-CO2H; SITE 20: n) [Example 34]    2.38
YXQGTFTSDXSKXLDKKAQXAFIEYLLAGGPSSGEPPPSGE (synthetic construct; SITE 2: note = 2-Aminoisobutyric Acid; SITE 10: note = 3-(4-Pyridyl)-L-alanine; SITE 13: note = alpha-methyl-leucine; SITE 17: note = Lysine is chemically modified through conjugation of the epsilon-amino group of the Lysine side chain with (2-[2-(2-Amino-ethoxy)-ethoxy]-acetyl)) [Example 28]    2.84
YXQGTXTSDXSILLDKKAQXAFIEYLEEGGPSSGAPPPSGGEE (non-natural residues; acylated Lys C18 diacid; C-term amide; synthetic construct; SITE 2: note = 2-Aminoisobutyric Acid; SITE 6: note = alpha-methyl-2-fluoro-L-phenylalanine; SITE 10: note = 3-(4-Pyridyl)-L-alanine; SITE 17: note = Lysine is chemically modified through conjugation of the epsilon-amino group of the Lysine side chain with (gamma-Glu)2-CO-(CH2)1) [Example 612]    2.10
YXQGTXTSDXXIXLDXKAQXEFIEXLIEGGPPSXXPPPXGGGE (Lys acylated AEEA-γGlu-C18 diacid; non-natural residues; C-amide; synthetic construct; SITE 2: note = 2-Aminoisobutyric Acid; SITE 6: note = alpha-methyl-2-fluoro-L-phenylalanine; SITE 10: note = 3-(4-Pyridyl)-L-alanine; SITE 11: note = alpha-methyl-L-serine; SITE 13: note = alpha-methyl-leucine; SITE 16: note = L-ornithine; SITE 17: note = Lysine is chemically mo) [Example 1197]    1.66
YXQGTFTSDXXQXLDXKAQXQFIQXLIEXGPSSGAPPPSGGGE (not fully specified; non-natural residues; Lys acylated γGlu-C18 diacid; C-terminal amide; synthetic construct; SITE 2: note = 2-Aminoisobutyric Acid; SITE 10: note = 3-(4-Pyridyl)-L-alanine; SITE 11: note = alpha-methyl-L-serine; SITE 13: note = alpha-methyl-leucine; SITE 16: note = L-ornithine; SITE 17: note = Lysine is chemically modified through conjugation of the epsilon-amino group) [Example 1186]    1.72
YXQGTXTSDXSIXLDXKAQXEFIEXLIEGGPSSGAPPPSGE (non-natural residues; acylated Lys; C-terminal amide; synthetic construct; SITE 2: note = 2-Aminoisobutyric Acid; SITE 6: note = alpha-methyl-2-fluoro-L-phenylalanine; SITE 10: note = 3-(4-Pyridyl)-L-alanine; SITE 13: note = alpha-methyl-leucine; SITE 16: note = L-ornithine; SITE 17: note = Lysine is chemically modified through conjugation of the epsil) [Example 614]    1.52
YXQGTXTSDXXIXLDXKAQXEFIEXLIEGGPSSXAPPPEGE (Non-natural residues; K AEEA-γGlu-C18 diacid; amide; position 35 uncertain; synthetic construct; SITE 2: note = 2-Aminoisobutyric Acid; SITE 6: note = alpha-methyl-2-fluoro-L-phenylalanine; SITE 10: note = 3-(4-Pyridyl)-L-alanine; SITE 11: note = alpha-methyl-L-serine; SITE 13: note = alpha-methyl-leucine; SITE 16: note = L-ornithine; SITE 17: note = Lysine is chemically mo) [Example 1192]    1.77
YXQGTFTSDFSKXLDKKAQXAFIQWLLEGGPSSGAPPPSEG (synthetic construct; SITE 2: note = 2-Aminoisobutyric Acid; SITE 13: note = alpha-methyl-leucine; SITE 17: note = Lysine is chemically modified through conjugation of the epsilon-amino group of the Lysine side chain with (2-[2-(2-Amino-ethoxy)-ethoxy]-acetyl)-(gamma-Glu)-CO-(CH2) 18-CO2H; SITE 20: n) [Example 39]    2.41
YXQGTFTSDFSXXLDKKAQXAFIEYLLEAGPSSGXPPPSGS (non-natural residues; lipidated Lys (AEEA)2-γGlu-C18 diacid; C-term amide; synthetic construct; SITE 2: note = 2-Aminoisobutyric Acid; SITE 12: note = L-ornithine; SITE 13: note = …; SITE 17: note = Lysine is chemically modified through conjugation of the epsilon-amino group of the Lysine side chain with (2-[2-(2-Amino-ethoxy)-ethoxy]-acetyl)2-(gamma-Glu)) [Example 254]    2.42
YXQGTXTSDXXIXLDXKAQXXFIEXLTEGGPSSGEPPPEGTEEE (acylated Lys (γGlu)2-C18 diacid; non-natural residues; C-terminal amide; synthetic construct; SITE 2: note = 2-Aminoisobutyric Acid; SITE 6: note = alpha-methyl-2-fluoro-L-phenylalanine; SITE 10: note = 3-(4-Pyridyl)-L-alanine; SITE 11: note = alpha-methyl-L-serine; SITE 13: note = alpha-methyl-leucine; SITE 16: note = L-ornithine; SITE 17: note = Lysine is chemically mo) [Example 598]    1.67
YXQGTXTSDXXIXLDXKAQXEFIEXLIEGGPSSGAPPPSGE (non-natural residues; lysine acylated with AEEA linker C18 diacid; C-amide; synthetic construct; SITE 2: note = 2-Aminoisobutyric Acid; SITE 6: note = alpha-methyl-L-phenylalanine; SITE 10: note = 3-(4-Pyridyl)-L-alanine; SITE 11: note = alpha-methyl-L-serine; SITE 13: note = alpha-methyl-leucine; SITE 16: note = L-ornithine; SITE 17: note = Lysine is chemically modified th) [Example 1164]    1.80
YXQGTFTSDFSXXLDKKAQXAFIEYLLEXGPSSGAPPPSGX (Aib, Orn, αMeL, 4Pal; lipidated Lys; C-terminal amide; synthetic construct; SITE 2: note = 2-Aminoisobutyric Acid; SITE 12: note = L-ornithine; SITE 13: note = alpha-methyl-leucine; SITE 17: note = Lysine is chemically modified through conjugation of the epsilon-amino group of the Lysine side chain with (2-[2-(2-Amino-ethoxy)-ethoxy]-acetyl)-(gamma-Glu)) [Example 279]    2.56
YXQGTXTSDXXIXLDXKAQXEFIEXLIEGGPPSXEPPPXGE (non-natural residues, lysine acylation, C-terminal amide; synthetic construct; SITE 2: note = 2-Aminoisobutyric Acid; SITE 6: note = alpha-methyl-2-fluoro-L-phenylalanine; SITE 10: note = 3-(4-Pyridyl)-L-alanine; SITE 11: note = alpha-methyl-L-serine; SITE 13: note = alpha-methyl-leucine; SITE 16: note = L-ornithine; SITE 17: note = Lysine is chemically mo) [Example 1193]    1.82
YXQGTXTSDXSIXLDKKAQXAFIEYLEEGGPSSGAPPPSGTGE (Aib, αMeF(2F), 4Pal, αMeL; acylated lysine; amide; synthetic construct; SITE 2: note = 2-Aminoisobutyric Acid; SITE 6: note = alpha-methyl-2-fluoro-L-phenylalanine; SITE 10: note = 3-(4-Pyridyl)-L-alanine; SITE 13: note = alpha-methyl-leucine; SITE 17: note = Lysine is chemically modified through conjugation of the epsilon-amino group of the Lysine) [Example 622]    1.72
YXQGTFTSDFSKXLDKKAQXAFIEYLLAGGPSSGAPPPGGS (synthetic construct; SITE 2: note = 2-Aminoisobutyric Acid; SITE 13: note = alpha-methyl-leucine; SITE 17: note = Lysine is chemically modified through conjugation of the epsilon-amino group of the Lysine side chain with (2-[2-(2-Amino-ethoxy)-ethoxy]-acetyl)-(gamma-Glu)-CO-(CH2) 18-CO2H; SITE 20: n) [Example 16]    2.45
YXQGTFTSDYSIXLDKKAAXAFIEYLLEGGPSSGEPPPSEG (Aib, αMeL; lysine acylated (AEEA)2-γGlu-C20 diacid; C-terminal amide; synthetic construct; SITE 2: note = 2-Aminoisobutyric Acid; SITE 13: note = alpha-methyl-leucine; SITE 17: note = Lysine is chemically modified through conjugation of the epsilon-amino group of the Lysine side chain with (2-[2-(2-Amino-ethoxy)-ethoxy]-acetyl)2-(gamma-Glu)-CO-(CH2 )18-CO2H; SITE 20:) [Example 294]    2.74
YXQGTXTSDXSILLDKKAQXAFIEYLEEGGPSSGEPPPSGTGE (Aib, αMeF(2F), 4Pal; acylated K; C-terminal amide; synthetic construct; SITE 2: note = 2-Aminoisobutyric Acid; SITE 6: note = alpha-methyl-2-fluoro-L-phenylalanine; SITE 10: note = 3-(4-Pyridyl)-L-alanine; SITE 17: note = Lysine is chemically modified through conjugation of the epsilon-amino group of the Lysine side chain with (gamma-Glu)2-CO-(CH2)1) [Example 607]    2.14
